Field: EC50. Provide a value for each of the binders that follow.
Target: CD137 (UniProt Q07011 24-255, limits assumed)
Sequence (Q07011 24-255 limits assumed): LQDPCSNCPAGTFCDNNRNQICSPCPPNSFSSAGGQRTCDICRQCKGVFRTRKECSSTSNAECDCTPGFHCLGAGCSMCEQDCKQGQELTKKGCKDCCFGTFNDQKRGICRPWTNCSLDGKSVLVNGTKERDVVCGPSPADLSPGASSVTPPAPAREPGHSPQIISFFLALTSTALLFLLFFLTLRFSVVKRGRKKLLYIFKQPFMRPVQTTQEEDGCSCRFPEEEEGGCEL
Test: cell-based or functional assay
Give the quantity in nM, number only.

[in] Reported EC50 for BCY12230 (Ac-C[tBuAla]PE[D-Lys(PYA)]PYCFADPY[Nle]CA; Cys residues bonded to TATA scaffold; [Ac]D[HArg]CSKGWLTMCQK(Ac)LHLCPSH; Cys residues bonded to TATA scaffold) peptide 1: DXCSKGWLTMCQKLHLCPSH peptide 2: CXPEXPYCFADPYXCA : what is it?
[out] 46

[in] Param item = BCY12375 ([Ac]C[tBuAla]EE(dK)PYCFADPY[Nle]C[Dap(PYA)]; carries Palmitic acid-PEG10 (Example 1); Cys residues bonded to TATA scaffold; Ac-SDKCSAGWLTMCQK[PYA]LHLCPSH; Cys residues bonded to TATA scaffold) peptide 1: SDKCSAGWLTMCQKLHLCPSH peptide 2: CXEEKPYCFADPYXCX ; retrieve measured EC50.
[out] 22

[in] Item BCY12229 (Ac-C[tBuAla]PE[D-Lys(PYA)]PYCFADPY[Nle]CA; Cys residues bonded to TATA scaffold; [Ac]D[HArg]CSAGWLTMCQKLHLCPSH; Cys residues bonded to TATA scaffold) peptide 1: DXCSAGWLTMCQKLHLCPSH peptide 2: CXPEXPYCFADPYXCA has what recorded EC50?
[out] 18

[in] EC50 for BCY12242 (Ac-C[tBuAla]PE[D-Lys(PYA)]PYCFADPY[Nle]CA; Cys residues bonded to TATA scaffold; [Ac]D[HArg]CSAGWLTMCQK(Ac)LKLCPSH; Cys residues bonded to TATA scaffold) peptide 1: DXCSAGWLTMCQKLKLCPSH peptide 2: CXPEXPYCFADPYXCA ?
[out] 20
